biological target: Fatty-acid amide hydrolase 1 (Rattus norvegicus, UniProt P97612); test: Inhibition of rat FAAH expressed in E. coli assessed as [14C]-labeled oleamide to oleic acid conversion
Sequence (P97612 whole entry): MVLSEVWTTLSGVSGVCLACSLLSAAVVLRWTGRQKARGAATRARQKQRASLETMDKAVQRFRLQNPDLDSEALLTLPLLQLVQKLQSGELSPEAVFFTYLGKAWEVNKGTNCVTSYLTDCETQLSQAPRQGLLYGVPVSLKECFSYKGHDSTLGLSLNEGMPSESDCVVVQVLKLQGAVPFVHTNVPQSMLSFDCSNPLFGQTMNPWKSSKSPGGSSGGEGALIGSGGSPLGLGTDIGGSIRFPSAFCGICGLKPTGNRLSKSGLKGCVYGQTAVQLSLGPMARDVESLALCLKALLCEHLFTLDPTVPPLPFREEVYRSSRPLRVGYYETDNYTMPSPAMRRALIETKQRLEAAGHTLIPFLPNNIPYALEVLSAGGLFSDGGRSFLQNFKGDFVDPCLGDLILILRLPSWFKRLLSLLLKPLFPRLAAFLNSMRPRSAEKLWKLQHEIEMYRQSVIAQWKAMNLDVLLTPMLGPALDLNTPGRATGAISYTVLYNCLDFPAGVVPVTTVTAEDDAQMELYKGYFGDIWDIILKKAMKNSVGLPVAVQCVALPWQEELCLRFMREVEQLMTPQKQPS
parameter.measured: Ki (µM)

INSERT INTO assay_data (molecule, observed_value) VALUES
  ('COC(=O)c1cccc(-c2cnc(C(=O)[C@H]3CCc4cc(-c5ccccc5)ccc4C3)o2)n1', 0.027),
  ('O=C(c1ncc(I)o1)[C@H]1CCc2cc(OCc3ccccc3)ccc2C1', 0.0041),
  ('O=C(c1ncc(-c2ccccn2)o1)[C@@H]1Cc2ccc(-c3ccccc3)cc2C1', 0.6),
  ('O=C(c1ncc(-c2ccccn2)o1)[C@@H]1CCc2ccccc2C1', 3.2),
  ('O=C(O)c1cccc(-c2cnc(C(=O)[C@H]3Cc4ccc(OCc5ccccc5)cc4C3)o2)n1', 0.051),
  ('O=C(O)c1cccc(-c2cnc(C(=O)[C@@H]3CCc4cc(OCc5ccccc5)ccc4C3)o2)n1', 0.74),
  ('O=C(c1ncc(-c2ccccn2)o1)[C@H]1CCc2cc(OCc3ccccc3)ccc2C1', 0.0032),
  ('O=C(O)c1cccc(-c2cnc(C(=O)[C@H]3CCc4cc(OCc5ccccc5)ccc4C3)o2)n1', 0.034),
  ('N#Cc1cnc(C(=O)[C@H]2CCc3cc(-c4ccccc4)ccc3C2)o1', 0.0034),
  ('O=C(c1nnc(-c2ccccn2)o1)[C@@H]1CCc2cc(Oc3ccccc3)ccc2C1', 0.0063),
  ('N#Cc1cnc(C(=O)[C@@H]2CCc3cc(Oc4ccccc4)ccc3C2)o1', 0.054),
  ('O=C(O)c1cccc(-c2cnc(C(=O)C3Cc4ccc(-c5ccccc5)cc4C3)o2)n1 (racemic)', 0.057),
  ('COC(=O)c1cccc(-c2cnc(C(=O)[C@H]3Cc4ccc(OCc5ccccc5)cc4C3)o2)n1', 0.0058),
  ('O=C(c1ncc(-c2ccccn2)o1)[C@@H]1CCc2cc(-c3ccccc3)ccc2C1', 0.24),
  ('N#Cc1cnc(C(=O)[C@@H]2CCc3cc(OCc4ccccc4)ccc3C2)o1', 0.12),
  ('COC(=O)c1nnc(C(=O)[C@H]2CCc3cc(Oc4ccccc4)ccc3C2)o1', 0.0015),
  ('O=C(c1ncco1)[C@@H]1CCc2cc(-c3ccccc3)ccc2C1', 0.46),
  ('O=C(c1ncc(-c2ccccn2)o1)[C@H]1CCc2ccccc2C1', 0.43),
  ('N#Cc1cnc(C(=O)[C@H]2CCc3cc(Oc4ccccc4)ccc3C2)o1', 0.0013),
  ('COC(=O)c1cccc(-c2cnc(C(=O)[C@@H]3CCc4cc(OCc5ccccc5)ccc4C3)o2)n1', 4.5);

Value source: ChEMBL document CHEMBL1765010
